- testProtocol: Oral bioavailability in dog at 10 mg/kg
- Assay type: ADME, organism-based, Canis lupus familiaris
- conditionsUsed: in vivo
quantityKind: bioavailability (%)
Numbers only here, please. The scale is %.

q: // lookup bioavailability for `CONC(=O)c1cn(-c2ccc3c(c2)CCC3)c2nc(Nc3ccc(C4CCN(C)CC4)cc3)ncc2c1=O`
a: 33

###

pIC50 tested on Proto-oncogene tyrosine-protein kinase Src (Homo sapiens, UniProt P12931): recorded values
Sequence (P12931 2-536 limits assumed): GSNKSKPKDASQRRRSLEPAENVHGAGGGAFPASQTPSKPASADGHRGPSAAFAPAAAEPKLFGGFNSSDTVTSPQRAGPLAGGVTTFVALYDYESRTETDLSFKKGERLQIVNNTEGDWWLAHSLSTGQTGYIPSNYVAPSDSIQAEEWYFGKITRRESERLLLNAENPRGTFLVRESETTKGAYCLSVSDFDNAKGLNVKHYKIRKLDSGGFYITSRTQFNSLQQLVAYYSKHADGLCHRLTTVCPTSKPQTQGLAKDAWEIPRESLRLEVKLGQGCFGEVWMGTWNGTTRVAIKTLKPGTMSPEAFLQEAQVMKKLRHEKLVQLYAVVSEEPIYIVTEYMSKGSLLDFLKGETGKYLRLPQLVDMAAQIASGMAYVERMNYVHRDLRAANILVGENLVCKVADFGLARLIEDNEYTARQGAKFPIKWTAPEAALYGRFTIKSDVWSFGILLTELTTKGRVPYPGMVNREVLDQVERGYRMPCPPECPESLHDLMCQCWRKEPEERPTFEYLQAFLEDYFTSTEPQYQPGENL
Please note pIC50 is a logarithmic value: minus log10 of concentration in mol/L. Answer with that number alone.

inputSmiles: CONC(=O)c1cn(-c2ccc3c(c2)CCC3)c2nc(Nc3ccc(C4CCN(CC(=O)O)CC4)cc3)ncc2c1=O
dataValue: 6.03

Below: the item to evaluate.
q: # get_value(readout= pIC50, system= Proto-oncogene tyrosine-protein kinase Src (Homo sapiens, UniProt P12931)) for `CONC(=O)c1cn(-c2ccc3c(c2)CCC3)c2nc(Nc3ccc(CCN4CCN(C)CC4)cc3)ncc2c1=O`
a: 5.82

###

- testProtocol: Oral bioavailability in mouse at 10 mg/kg
- Assay type: ADME, organism-based
- conditionsUsed: in vivo
quantityKind: bioavailability

q: // lookup bioavailability for `CONC(=O)c1cn(-c2ccc3c(c2)CCC3)c2nc(Nc3ccc(C4CCN(C)CC4)cc3)ncc2c1=O`
a: 51%

###

# half-life per record follows
- testProtocol: Half life in Sprague-Dawley rat at 2 mg/kg, iv
- Type: ADME, organism-based
- Design: dose 2 mg/kg, route intravenous
- conditionsUsed: in vivo
Numbers only here, please. The scale is h.

Worked examples follow.
compound: CCN1CCCC(O)(c2cccc(Nc3ncc4c(=O)c(C(=O)NOC)cn(-c5ccc6c(c5)CCC6)c4n3)c2)C1 (centres undefined)
half-life / h: 5.2

compound: CNC(=O)c1cn(-c2ccc3c(c2)CCC3)c2nc(Nc3ccc(CCN4CCOCC4)cc3)ncc2c1=O
half-life / h: 0.7

compound: CONC(=O)c1cn(-c2ccc3c(c2)CCC3)c2nc(Nc3ccc(CCN4CCN(C)CC4)cc3)ncc2c1=O
half-life / h: 4.5

Below: the item to evaluate.
q: // lookup half-life for `CCc1ccc(-n2cc(C(=O)NOC)c(=O)c3cnc(Nc4ccc(C5CCN(C)CC5)cc4)nc32)cc1`
a: 8

###

- testProtocol: Half life in mouse at 2 mg/kg, iv
- Assay type: ADME, organism-based
- Design: dose 2 mg/kg, route intravenous
- conditionsUsed: in vivo
quantityKind: half-life (h)
Numbers only here, please. The scale is h.

q: // lookup half-life for `CONC(=O)c1cn(-c2ccc3c(c2)CCC3)c2nc(Nc3ccc(C4CCN(C)CC4)cc3)ncc2c1=O`
a: 1.8

###

- testProtocol: Clearance in Sprague-Dawley rat at 2 mg/kg, iv
- Format: ADME, organism-based
- Parameters: dose 2 mg/kg, route intravenous
- conditionsUsed: in vivo
# clearance per record follows
Numbers only here, please. The scale is mL/min/kg.

Worked examples follow.
molecule: CONC(=O)c1cn(-c2ccc3c(c2)CCC3)c2nc(Nc3ccc(CCN4CCNC(=O)C4)cc3)ncc2c1=O
clearance (mL/min/kg): 10
//
molecule: CONC(=O)c1cn(-c2ccc3c(c2)CCC3)c2nc(Nc3ccc(C4CCN(C)CC4)cc3)ncc2c1=O
clearance (mL/min/kg): 11
//
molecule: CCc1ccc(-n2cc(C(=O)NOC)c(=O)c3cnc(Nc4ccc(C5CCN(C)CC5)cc4)nc32)cc1
clearance (mL/min/kg): 8
//
molecule: CCN1CCCC(O)(c2cccc(Nc3ncc4c(=O)c(C(=O)NOC)cn(-c5ccc6c(c5)CCC6)c4n3)c2)C1 (centres undefined)
clearance (mL/min/kg): 20.4
//
molecule: CONC(=O)c1cn(-c2ccc3c(c2)CCC3)c2nc(Nc3ccc(CCN4CCN(C)CC4)cc3)ncc2c1=O
clearance (mL/min/kg): 4
//
molecule: CN1CCN(CCc2ccc(Nc3ncc4c(=O)c(C(N)=O)cn(-c5ccc6c(c5)CCC6)c4n3)cc2)CC1
clearance (mL/min/kg): 25
//
molecule: CONC(=O)c1cn(-c2ccc3c(c2)CCC3)c2nc(Nc3ccc(C4CCN(CCO)CC4)cc3)ncc2c1=O
clearance (mL/min/kg): 34
//
molecule: CNC(=O)c1cn(-c2ccc3c(c2)CCC3)c2nc(Nc3ccc(CCN4CCOCC4)cc3)ncc2c1=O
clearance (mL/min/kg): 47

Below: the item to evaluate.
q: // lookup clearance for `CONC(=O)c1cn(-c2ccc3c(c2)CCC3)c2nc(Nc3ccc(C4CCN(CC(=O)O)CC4)cc3)ncc2c1=O`
a: 38

###

- testProtocol: Volume of distribution at steady state in Sprague-Dawley rat at 2 mg/kg, iv
- Assay type: ADME, organism-based
- Set-up: dose 2 mg/kg, route intravenous
- conditionsUsed: in vivo, read-out: Vdss
The label MET is reserved for Vd strictly under 4 L/kg; NOT MET covers values equal to or above it.

molecule: CONC(=O)c1cn(-c2ccc3c(c2)CCC3)c2nc(Nc3ccc(C4CCN(C)CC4)cc3)ncc2c1=O
classification: NOT MET

For the next question, use this molecule.
q: Dear colleague, could you confirm whether Vd of `CONC(=O)c1cn(-c2ccc3c(c2)CCC3)c2nc(Nc3ccc(C4CCN(CC(=O)O)CC4)cc3)ncc2c1=O` falls below 4 L/kg? Thanks.
a: NOT MET

###

# Cmax per record follows
- testProtocol: Cmax in Sprague-Dawley rat at 10 mg/kg, po
- Assay type: ADME, organism-based
- Set-up: dose 10 mg/kg, route oral
- conditionsUsed: in vivo
Numbers only here, please. The scale is nM.

Worked examples follow.
inputSmiles: CCc1ccc(-n2cc(C(=O)NOC)c(=O)c3cnc(Nc4ccc(C5CCN(C)CC5)cc4)nc32)cc1
dataValue: 3400
--
inputSmiles: CONC(=O)c1cn(-c2ccc3c(c2)CCC3)c2nc(Nc3ccc(C4CCN(CCO)CC4)cc3)ncc2c1=O
dataValue: 130

q: // lookup Cmax for `CONC(=O)c1cn(-c2ccc3c(c2)CCC3)c2nc(Nc3ccc(C4CCN(C)CC4)cc3)ncc2c1=O`
a: 1600

###

- testProtocol: Metabolic stability in rat liver microsomes after 10 mins
- Type: ADME, Microsome
- conditionsUsed: read-out: Stability
# remaining at 10 min per record follows
Numbers only here, please. The scale is %.

Worked examples follow.
inputSmiles: CONC(=O)c1cn(-c2ccc3c(c2)CCC3)c2nc(Nc3ccc(C4CCN(CCO)CC4)cc3)ncc2c1=O
quantityKind: remaining at 10 min
unitAnnotation: %
dataValue: 100
//
inputSmiles: CONC(=O)c1cn(C2CCC(C)(C)CC2)c2nc(Nc3ccc(C4CCN(C)CC4)cc3)ncc2c1=O
quantityKind: remaining at 10 min
unitAnnotation: %
dataValue: 97
//
inputSmiles: CCc1ccc(-n2cc(C(=O)NOC)c(=O)c3cnc(Nc4ccc(C5CCN(C)CC5)cc4)nc32)cc1
quantityKind: remaining at 10 min
unitAnnotation: %
dataValue: 96
//
inputSmiles: CONC(=O)c1cn(-c2ccc3c(c2)CCC3)c2nc(Nc3ccc(CCN4CCN(C)C(=O)C4)cc3)ncc2c1=O
quantityKind: remaining at 10 min
unitAnnotation: %
dataValue: 29
//
inputSmiles: CC(C)ONC(=O)c1cn(-c2ccc3c(c2)CCC3)c2nc(Nc3ccc(CCN4CCN(C)CC4)cc3)ncc2c1=O
quantityKind: remaining at 10 min
unitAnnotation: %
dataValue: 100

q: // lookup remaining at 10 min for `CONC(=O)c1cn(-c2ccc3c(c2)CCC3)c2nc(Nc3ccc(CCN4CCN(C)CC4)cc3)ncc2c1=O`
a: 78

q: // lookup remaining at 10 min for `CNC(=O)c1cn(-c2ccc3c(c2)CCC3)c2nc(Nc3ccc(CCN4CCN(C)CC4)cc3)ncc2c1=O`
a: 73

q: // lookup remaining at 10 min for `CONC(=O)c1cn(-c2ccc3c(c2)CCC3)c2nc(Nc3ccc(CCN4CCC(F)(F)CC4)cc3)ncc2c1=O`
a: 86

q: // lookup remaining at 10 min for `CONC(=O)c1cn(-c2ccc3c(c2)CCC3)c2nc(Nc3ccc(CCN4CCOCC4)cc3)ncc2c1=O`
a: 24

###

- studySystem: Macrophage colony-stimulating factor 1 receptor (Homo sapiens)
- Sequence (P07333 whole entry): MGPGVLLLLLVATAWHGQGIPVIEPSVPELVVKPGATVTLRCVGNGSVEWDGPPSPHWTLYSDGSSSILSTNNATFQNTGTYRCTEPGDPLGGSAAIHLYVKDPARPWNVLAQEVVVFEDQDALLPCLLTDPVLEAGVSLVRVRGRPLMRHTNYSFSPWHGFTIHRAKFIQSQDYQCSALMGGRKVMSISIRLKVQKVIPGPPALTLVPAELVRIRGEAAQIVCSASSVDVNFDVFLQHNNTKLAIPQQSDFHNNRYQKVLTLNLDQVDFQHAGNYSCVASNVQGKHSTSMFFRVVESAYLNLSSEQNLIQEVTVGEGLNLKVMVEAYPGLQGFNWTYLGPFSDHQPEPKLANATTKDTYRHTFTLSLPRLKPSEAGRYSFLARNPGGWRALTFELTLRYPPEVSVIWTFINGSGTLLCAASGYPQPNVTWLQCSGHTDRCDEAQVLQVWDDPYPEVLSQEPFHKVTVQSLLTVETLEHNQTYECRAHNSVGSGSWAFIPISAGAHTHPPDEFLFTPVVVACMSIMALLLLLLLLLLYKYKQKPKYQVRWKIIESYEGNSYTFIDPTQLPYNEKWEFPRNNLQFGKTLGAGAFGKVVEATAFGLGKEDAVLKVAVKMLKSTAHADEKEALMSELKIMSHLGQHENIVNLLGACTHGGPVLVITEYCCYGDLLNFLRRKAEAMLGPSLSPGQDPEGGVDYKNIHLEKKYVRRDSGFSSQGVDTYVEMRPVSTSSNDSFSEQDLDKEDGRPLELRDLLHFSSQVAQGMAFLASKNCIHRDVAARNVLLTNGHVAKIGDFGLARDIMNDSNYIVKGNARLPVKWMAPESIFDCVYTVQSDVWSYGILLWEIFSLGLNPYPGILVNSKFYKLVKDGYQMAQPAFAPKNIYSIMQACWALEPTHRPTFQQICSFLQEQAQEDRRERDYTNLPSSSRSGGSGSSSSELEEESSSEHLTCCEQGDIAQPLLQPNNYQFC
# pIC50 per record follows
Please note pIC50 is a logarithmic value: minus log10 of concentration in mol/L. Answer with that number alone.

Worked examples follow.
inputSmiles: CCc1cccc(-n2cc(C(=O)NOC)c(=O)c3cnc(Nc4ccc(C5CCN(C)CC5)cc4)nc32)c1
pIC50: 9.40

inputSmiles: CN1CCN(CCc2ccc(Nc3ncc4c(=O)c(C(=O)NCCO)cn(-c5ccc6c(c5)CCC6)c4n3)cc2)CC1
pIC50: 9.15

inputSmiles: CCNC(=O)c1cn(-c2ccc3c(c2)CCC3)c2nc(Nc3ccc(CCN4CCN(C)CC4)cc3)ncc2c1=O
pIC50: 8.49

inputSmiles: CONC(=O)c1cn(-c2ccc3c(c2)CCC3)c2nc(Nc3ccc(C4CCNCC4)cc3)ncc2c1=O
pIC50: 9.30

inputSmiles: CONC(=O)c1cn(-c2ccc3c(c2)CCC3)c2nc(Nc3ccc(CCN4CCN(C)CC4)cc3)ncc2c1=O
pIC50: 9.15

q: # get_value(readout= pIC50, system= Macrophage colony-stimulating factor 1 receptor (Homo sapiens)) for `CONC(=O)c1cn(-c2ccc3c(c2)CCC3)c2nc(Nc3ccc(OC)nc3)ncc2c1=O`
a: 8.28

q: # get_value(readout= pIC50, system= Macrophage colony-stimulating factor 1 receptor (Homo sapiens)) for `CONC(=O)c1cn(C2CCCCC2)c2nc(Nc3ccc(C4CCN(C)CC4)cc3)ncc2c1=O`
a: 8.30
